Test system: Lolium rigidum (LOLRI)
TEST_SUMMARY: Pre-emergence herbicidal action against LOLRI
Type: in vivo
ASSAY_CONDITIONS: dosage 320 g/ha
Property: Pre-emergence action against LOLRI in %; scope: individual molecules
VALUE_TYPE: Pre-emergence action against LOLRI in %

CHEMICAL_STRING: COC(=O)CSc1nn(-c2ccccn2)c(-c2cncc(F)c2)c1Br
TARGET_OR_TEST_SYSTEM: Lolium rigidum (LOLRI)
OBSERVED: 90%
//
CHEMICAL_STRING: COC(=O)CCOC(=O)COc1nn(-c2cccc(C)n2)c(-c2ccc(F)nc2)c1Br
TARGET_OR_TEST_SYSTEM: Lolium rigidum (LOLRI)
OBSERVED: 80%
//
CHEMICAL_STRING: COC(=O)[C@@H](C)Oc1nn(-c2ncccc2F)c(-c2cccnc2)c1Br
TARGET_OR_TEST_SYSTEM: Lolium rigidum (LOLRI)
OBSERVED: 100%
//
CHEMICAL_STRING: COC(=O)[C@@H](C)Oc1nn(-c2ncccc2F)c(-c2cncc(F)c2)c1Br
TARGET_OR_TEST_SYSTEM: Lolium rigidum (LOLRI)
OBSERVED: 100%
//
CHEMICAL_STRING: COC(=O)CNC(=O)COc1nn(-c2ccccn2)c(-c2ccc(F)nc2)c1C1CC1
TARGET_OR_TEST_SYSTEM: Lolium rigidum (LOLRI)
OBSERVED: 90%
//
CHEMICAL_STRING: COC(=O)COc1nn(-c2nc(F)ccc2F)c(-c2ccc(F)nc2)c1C1CC1
TARGET_OR_TEST_SYSTEM: Lolium rigidum (LOLRI)
OBSERVED: 90%
//
CHEMICAL_STRING: CCOC(=O)COc1nn(-c2nc(F)ccc2F)c(-c2ccc(F)nc2)c1Br
TARGET_OR_TEST_SYSTEM: Lolium rigidum (LOLRI)
OBSERVED: 90%
//
CHEMICAL_STRING: COC(=O)COc1nn(-c2ncccc2Cl)c(-c2ccc(F)nc2)c1Br
TARGET_OR_TEST_SYSTEM: Lolium rigidum (LOLRI)
OBSERVED: 100%

* * *

System: Abutilon theophrasti (ABUTH)
TEST_SUMMARY: Pre-emergence herbicidal action against ABUTH
Assay type: in vivo
ASSAY_CONDITIONS: Dosage column 320 g/ha (title prints 3200 g/ha); scored visually after about 3 weeks; 100% = plants have died

CHEMICAL_STRING: C[C@@H](Oc1nn(-c2ncccc2F)c(-c2ccc(F)nc2)c1I)C(=O)O
UNIT_SPEC: %
Pre-emergence action against ABUTH: 100
--
CHEMICAL_STRING: C[C@@H](Oc1nn(-c2nc(F)ccc2F)c(-c2ccc(F)nc2)c1C1CC1)C(=O)O
UNIT_SPEC: %
Pre-emergence action against ABUTH: 80
--
CHEMICAL_STRING: COC(=O)[C@@H](C)Oc1nn(-c2ncccc2F)c(-c2ccc(F)nc2)c1C(F)(F)F
UNIT_SPEC: %
Pre-emergence action against ABUTH: 90
--
CHEMICAL_STRING: COC(=O)[C@@H](C)Oc1nn(-c2ccccn2)c(-c2cncc(F)c2)c1Cl
UNIT_SPEC: %
Pre-emergence action against ABUTH: 90
--
CHEMICAL_STRING: O=C(O)COc1nn(-c2ncccc2F)c(-c2ccc(F)nc2)c1Br
UNIT_SPEC: %
Pre-emergence action against ABUTH: 80
--
CHEMICAL_STRING: COC(=O)CCOC(=O)[C@@H](C)Oc1nn(-c2ccccn2)c(-c2ccc(F)nc2)c1Cl
UNIT_SPEC: %
Pre-emergence action against ABUTH: 80
--
CHEMICAL_STRING: COC(=O)CCOC(=O)[C@@H](C)Oc1nn(-c2ccccn2)c(-c2cncc(F)c2)c1Cl
UNIT_SPEC: %
Pre-emergence action against ABUTH: 90
--
CHEMICAL_STRING: COC(=O)[C@@H](C)Oc1nn(-c2nc(F)ccc2F)c(-c2ccc(F)nc2)c1Cl
UNIT_SPEC: %
Pre-emergence action against ABUTH: 80

Origin of values: patent US20240041042A1
